Molecular target: Mast/stem cell growth factor receptor Kit (Homo sapiens) (UniProt P10721)
Sequence (P10721 whole entry): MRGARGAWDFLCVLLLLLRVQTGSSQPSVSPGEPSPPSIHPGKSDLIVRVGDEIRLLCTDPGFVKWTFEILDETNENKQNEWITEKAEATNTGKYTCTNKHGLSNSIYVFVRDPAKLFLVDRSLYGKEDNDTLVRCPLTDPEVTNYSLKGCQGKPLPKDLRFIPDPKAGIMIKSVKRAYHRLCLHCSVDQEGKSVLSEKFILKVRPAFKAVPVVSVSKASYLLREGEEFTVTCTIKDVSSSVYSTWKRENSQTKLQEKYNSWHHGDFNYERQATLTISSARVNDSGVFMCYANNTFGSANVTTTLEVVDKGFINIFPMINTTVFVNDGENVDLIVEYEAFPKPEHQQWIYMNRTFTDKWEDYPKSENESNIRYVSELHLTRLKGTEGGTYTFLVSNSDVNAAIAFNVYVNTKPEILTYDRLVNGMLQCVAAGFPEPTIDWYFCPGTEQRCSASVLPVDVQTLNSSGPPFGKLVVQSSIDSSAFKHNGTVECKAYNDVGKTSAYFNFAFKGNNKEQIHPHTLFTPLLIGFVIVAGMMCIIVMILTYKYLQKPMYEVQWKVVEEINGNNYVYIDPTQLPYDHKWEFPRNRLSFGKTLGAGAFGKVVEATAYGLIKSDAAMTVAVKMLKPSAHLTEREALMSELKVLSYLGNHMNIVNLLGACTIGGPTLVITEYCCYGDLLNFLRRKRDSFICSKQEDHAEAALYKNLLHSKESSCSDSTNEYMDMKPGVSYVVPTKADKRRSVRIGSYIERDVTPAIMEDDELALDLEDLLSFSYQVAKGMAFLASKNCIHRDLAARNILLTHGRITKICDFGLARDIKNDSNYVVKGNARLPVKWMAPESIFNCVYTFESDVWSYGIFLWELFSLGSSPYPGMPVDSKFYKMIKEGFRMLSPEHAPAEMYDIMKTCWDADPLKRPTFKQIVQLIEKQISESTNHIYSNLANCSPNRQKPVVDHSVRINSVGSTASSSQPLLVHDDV
Experiment: Reduction in KIT mRNA expression in human GIST882 cells after 24 hrs
Type: functional, cell-based
Active and inactive are the calls of the source. The calls are words filed in the database; no cut-off is given here.
Parameter call: string, one of active, inactive

For orientation, consider the following solved cases.
{"mol-smiles": "Cc1ccc(NC(=O)c2ccc(CN3CCN(C)CC3)cc2)cc1Nc1nccc(-c2cccnc2)n1", "qualitative-label": "inactive"}
{"mol-smiles": "C[n+]1ccc(-c2c3nc(c(-c4cc[n+](C)cc4)c4ccc([nH]4)c(-c4cc[n+](C)cc4)c4ccc([nH]4)c(-c4cc[n+](C)cc4)c4nc2C=C4)C=C3)cc1", "qualitative-label": "inactive"}
{"mol-smiles": "CN(C)c1ccc(Nc2c3ccc(NC(=O)CCN4CCCC4)cc3nc3cc(NC(=O)CCN4CCCC4)ccc23)cc1", "qualitative-label": "inactive"}

Now look at this entry.
Please let me know the test result on file for `O=C1c2cc(NCCN3CCCC3)c3c4c(cc(NCCN5CCCC5)c(c24)C(=O)N1CCN1CCCC1)C(=O)N(CCN1CCCC1)C3=O` .
active
